# credit: patent US20160185837A1

Target: T1, mouse GLP-1 receptor (mouse, UniProt O35659 22-463)
T1 sequence (looked up): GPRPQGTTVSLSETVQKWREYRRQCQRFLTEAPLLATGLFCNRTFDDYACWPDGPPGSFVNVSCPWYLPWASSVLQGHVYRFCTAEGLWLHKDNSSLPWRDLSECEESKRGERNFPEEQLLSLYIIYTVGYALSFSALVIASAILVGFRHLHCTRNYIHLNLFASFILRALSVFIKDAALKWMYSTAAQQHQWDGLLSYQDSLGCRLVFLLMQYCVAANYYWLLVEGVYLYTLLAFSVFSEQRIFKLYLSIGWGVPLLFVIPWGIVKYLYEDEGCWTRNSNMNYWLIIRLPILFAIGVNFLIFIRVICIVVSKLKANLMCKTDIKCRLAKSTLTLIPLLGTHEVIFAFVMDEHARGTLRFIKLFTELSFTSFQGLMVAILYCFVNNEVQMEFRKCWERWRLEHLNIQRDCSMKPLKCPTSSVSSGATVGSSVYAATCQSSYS
Assay: cell-based or functional assay
# if value of cAMP EC50 reaches 1 nM, tag TRUE; if it stays below, tag FALSE

>>> print(df.to_string())
                                     binder  category_label
0  IP383 (Fc fusion) YSEGTFTSLYRILLEEEAVRLFIEWLLAGGGGGGSGGGGSGGGGSGGGGSATHTCPPC            TRUE
1  IP087 (Fc fusion) YSEGTFTSDYSKLLEEEAVRLFIEWLLAGPAAAGGSGSTASSGSGSATGGGGAATHTCPPCPAPEF            TRUE
2  IP400 (Fc fusion) YSEGTHTSDLSKLLEEEAVRLFIEWLLAGGGGGGSGGGGSGGGGSGGGGSATHTCPPC            TRUE
3  IP262 (Fc fusion) YSEGTFTSDYSKLLEEEAVRLFIEWLLKGPGGGGGSGGGGSGGGGSGGGGSATHTCPPCPAPEF           FALSE
